# System: OVCAR-4
# protocol: NCI tumour cell line growth inhibition, 48 h
Activity calls are given as the source filed them. No stated cut-off is given here; in the data, active = GI50 up to about 1.1 µM and inactive = higher.
readout: GI50

O=C(/C=C\c1cccc2ccccc12)c1cccs1    17.7 µM (inactive)
O=C(O)c1c2c(cc3c(=O)cc(-c4ccccc4)oc13)CCCC2    > 100 µM (inactive)
COc1ccc(-c2nc(-c3cc4c(ccc5ccccc54)oc3=O)cs2)cc1    43.7 µM (inactive)
COc1cc(C2C(C(=O)O)=C(COC(C)=O)Oc3cc4c(cc32)OCO4)cc(OC)c1OC(C)=O (stereo unspecified)    > 100 µM (inactive)
Cc1cc(-c2cscn2)c(O)c([N+](=O)[O-])c1    82.6 µM (inactive)

Now consider the entry below.
Entry under test: COc1ccc(C(C)NNC(=O)c2cc[n+]([BH2-]C#N)cc2)c(OC)c1 (stereo unspecified) . Its GI50 was 69.5 µM (inactive)

###

# System: LOX IMVI
# protocol: NCI tumour cell line growth inhibition, 48 h
Calls of active or inactive are those of the source. No stated cut-off is given here; in the data, active = GI50 up to about 1.1 µM and inactive = higher. Starred links: 1 amine or outer side, 2 acyl side, 3 side chain; linkers in the order of their positions; H or OH if unused. Non-standard residues stand in square brackets, D forms with d. Residues, ends and D or L forms follow the SMILES beside them. ξ: configuration not given here. X24 = O=C(C(CC(O)CO)O[*:1])[*:2]; Ile(3ξ) = CCC(C)[C@H](N)C(=O)O; NMeV = CN[C@H](C(=O)O)C(C)C; NMeA = CN[C@@H](C)C(=O)O; βAla = NCCC(=O)O
readout: GI50

O=C(CC(=O)n1nc(-c2ccccc2)c(/N=N/c2ccc(Cl)cc2)c1-c1ccccc1)Nc1ccc(Cl)cc1    > 41.5 µM (inactive)
COC(=O)C1=C(O)C(O)=C(C(=O)OC)C1    > 100 µM (inactive)
CCN(CC)C1Oc2cc3c(cc2C(c2cccc(OC)c2O)C1C)OCO3 (centres undefined)    4.31 µM (inactive)

Form field GI50 for item CCC(C)[C@@H]1NC(=O)[C@@H]2CCCN2C(=O)C(CC(O)CO)OC(=O)CCNC(=O)[C@H](C)N(C)C(=O)[C@H](C(C)C)N(C)C1=O (some centres undefined) (cyclo([Ile(3ξ)][NMeV][NMeA][βAla][X24]P)) on LOX IMVI: 84.5 µM (inactive)

# value of GI50, LOX IMVI, item COc1ccc(C(C#N)NCCCCCCNC(C#N)c2ccc(OC)cc2)cc1 (centres undefined) = > 100 µM (inactive)

Recorded GI50 for CC1(c2cccc(Cl)c2)CC(c2cccc(Cl)c2)=C(C#N)C(=C(C#N)C#N)N1 (centres undefined) on LOX IMVI was 19.8 µM (inactive)

Here `CCOC(=O)c1ccc(-n2cnc(-c3ccc([N+](=O)[O-])cc3)c2)cc1` was tested on LOX IMVI, and its GI50 came to > 100 µM (inactive)

LOX IMVI GI50 of `O=C(Cc1ccccc1)Oc1ccc2c(-c3ccccc3)c(C(=O)Nc3ccc(Cl)cc3)c(=O)oc2c1` is > 100 µM (inactive)

Short answer on LOX IMVI for `N#Cc1nc(CCCN2C(=O)c3ccccc3C2=O)oc1N` , GI50: > 100 µM (inactive)

###

# Test system: T47D
# protocol: NCI tumour cell line growth inhibition, 48 h
The source made the active and inactive calls. No stated cut-off is given here; in the data, active = GI50 up to about 1.1 µM and inactive = higher.
readout: GI50

Examples with their reported GI50 follow.
COc1ccc(-c2nc(SCC(=O)N/N=C/c3ccc(O)c(OC)c3)[nH]c2-c2ccc(OC)cc2)cc1    22.7 µM (inactive)
CN(C)CCCN1c2ccc([N+](=O)[O-])cc2CCc2cc([N+](=O)[O-])ccc21    16.1 µM (inactive)
CC(=O)Nc1ccc(Nc2nc(=O)[nH]c(=O)[nH]2)cc1    > 100 µM (inactive)

The reported value for Cc1ccc(C(=O)O)c(CC2Cc3c(C)cccc3C2=O)c1 (stereo not given) in terms of GI50 is > 100 µM (inactive)

Entry `N#Cc1nc(CCCN2C(=O)c3ccccc3C2=O)oc1N` ; GI50 = > 100 µM (inactive)

###

# System: SF-539
# protocol: NCI tumour cell line growth inhibition, 48 h
Activity calls are given as the source filed them. Cut-off read from the data, not from the text of the source: active = GI50 up to about 1.1 µM and inactive = higher.
Documented GI50 across a set of molecules

C/C=C1\CC(C(=O)OCC)CCCCCCC1=O (stereo unspecified)    > 100 µM (inactive)
O=C1OC(c2ccccc2)=N/C1=C/c1cccs1    27.6 µM (inactive)

Now look at this entry.
The recorded GI50 for entry CC(C)(C)NC(=O)CCC1C(C(=O)NC(C)(C)C)C2(Cl)C(Cl)=C(Cl)C1(Cl)C2(Cl)Cl (stereo unspecified) equals > 100 µM (inactive)

###

# Tested on: OVCAR-3
# protocol: NCI tumour cell line growth inhibition, 48 h
Active and inactive are the calls of the source. Cut-off read from the data, not from the text of the source: active = GI50 up to about 1.1 µM and inactive = higher.
Hello, when you answer, please use one of the following outcomes: active, inactive

Cc1cc2nc(CC(C(F)(F)F)C(F)(F)F)oc2cc1C    inactive
Cc1ccc(/C=C2/N/C(=N\N=C/c3ccccc3)NC2=O)cc1    inactive
O=C(O)CCSCCCN1C(=O)c2ccccc2C1=O    inactive
COc1cc2c(cc1OC)C(=O)/C(=C/c1cc(C)c(O)c(C)c1)C2    active
COc1ccc2c(c1)[n+]([O-])c(C(=O)C/C(=N\NC(=O)C[N+](C)(C)C)C(=O)Nc1cc(Cl)ccc1Cl)c(C)[n+]2[O-]    inactive
COc1cc2c(cc1OS(C)(=O)=O)N=C[C@@H]1CCCN1C2=O    inactive

I'd appreciate the recorded outcome for Clc1ccc(OCC2NC3CCC2CC3)cn1 (stereo not drawn) from this test.
inactive

Which outcome did this test record for the compound `O=C(Cc1ccc([N+](=O)[O-])c([N+](=O)[O-])c1CC(=O)C(=O)Nc1cc(Cl)ccc1Cl)C(=O)Nc1cc(Cl)ccc1Cl` ?
inactive

Give the logged outcome of this assay for the following compound: `CC(=O)Nc1ccc(Nc2nc(=O)[nH]c(=O)[nH]2)cc1`
inactive

Identify the outcome logged in this assay for the compound shown: CSc1nc2c(nc(N)n2C2OCC(O)C(O)C2O)c(=O)n1C (stereo not drawn)
inactive

// outcome(item) with item = `COc1ccc(-c2nc(SCC(=O)N/N=C/c3ccc(O)c(OC)c3)[nH]c2-c2ccc(OC)cc2)cc1`
inactive

GET /call?item= O=C(Nc1cc(Cl)c(Cl)cc1Cl)C(=O)C(C(=O)c1ccc2ccccc2c1)C1OC(=O)c2ccccc21 (stereo not drawn) returns the recorded outcome of this test.
inactive

Could you kindly confirm the outcome this assay logged for CCN(CC)C1Oc2cc3c(cc2C(c2cc(OC)c(O)c(OC)c2)C1C)OCO3 (stereo not drawn) ?
inactive

Per the assay record, what outcome was assigned to COc1c(O)cc(O)c2c(=O)cc(-c3ccccc3)oc12 [WOGONIN] ?
inactive

Any idea what this test logged for `O=C(NCCCNCCN1C(=O)c2cccc3cc([N+](=O)[O-])cc(c23)C1=O)c1cc(-c2ccccc2)nc2ccccc12` ?
inactive

Per the assay record, what outcome was assigned to `COc1ccc(-c2c(C#N)c(S)n(NS(=O)(=O)c3ccccc3)c(=O)c2C#N)cc1` ?
inactive

What was the test verdict on CCCCCCCCOCC(O)COC(C)C (stereo not drawn) ?
inactive

What is the recorded call for this compound in the test? `c1ccc(CCNc2ccccn2)nc1`
inactive

Called result for `N=C(N)SCC(=O)O`
inactive

Could you please tell me the result logged for `N#Cc1ccc(OC(=O)c2ccc(NC(=N)N)cc2)cc1.c1ccncc1` in this assay?
inactive

What classification did CCCCNC(=O)C1C2CCC(O2)C1C(=O)O (stereo not drawn) end up with in this test?
inactive

Short answer needed: outcome of this test for `O=C(Cc1ccccc1)Oc1ccc2c(-c3ccccc3)c(C(=O)Nc3ccc(Cl)cc3)c(=O)oc2c1` ?
inactive

Would you mind telling me which call this test gave COC(=O)[C@@]1(C)CCC[C@]2(C(=O)O)C3Cc4occc4[C@H](C)[C@@H]3CCC21 (stereo partly drawn) ?
inactive

###

# Test system: HOP-92
# protocol: NCI tumour cell line growth inhibition, 48 h
The source made the active and inactive calls. Rule as the data show it: active = GI50 up to about 1.1 µM and inactive = higher.
Entries annotated with measured GI50

Cc1nc2c(o1)/C(=N\c1ccccc1)c1ccccc1/C2=N/c1ccccc1    49.2 µM (inactive)

Consider `CCCCCCCC/C=C\CCCCCCCC(=O)NCCN(CCN)C(=O)CCCCCCC/C=C\CCCCCCCC` . Its measured GI50 is > 100 µM (inactive)

###

# System: DU-145
# protocol: NCI tumour cell line growth inhibition, 48 h
The source made the active and inactive calls. No stated cut-off is given here; in the data, active = GI50 up to about 1.1 µM and inactive = higher.
readout: GI50

Nc1cc(OCC2CCCCC2)nc(N)n1    > 100 µM (inactive)

compound OCC(O)C(O)C(O)C(/C=N\Nc1ncnc2ccc(Br)cc12)=N/Nc1ncnc2ccc(Br)cc12 (stereo not drawn) , GI50 observed: 5.65 µM (inactive)

So for `CCOC(=O)c1ccc2c(c1)Cc1cc([N+](=O)[O-])ccc1-2` , the logged GI50 turned out to be > 100 µM (inactive)

GI50 in this record for COC(OC)C1(c2ccccc2)Oc2ccccc2C1=O (stereo not drawn) : > 100 µM (inactive)

Briefly, GI50 measured for `O=c1[nH]c(Nc2ccc(Br)c(C(F)(F)F)c2)nc2[nH]cnc12` : 55 µM (inactive)

The measured GI50 associated with `O=C1C(Cl)=C(N2C(=O)CCCC2=O)C(=O)c2ccccc21` reads 16.6 µM (inactive)
